tested on: IFNγ-induced STAT1 phosphorylation (pSTAT1) in B16F10 cells; experiment: B16F10 Phospho-STAT1 HTRF proximal pharmacodynamic (PD) assay; assay type: cell-based, murine; conditions: B16-F10; Table 2; 3 hours compound, then mouse IFNγ 100 nM 10 minutes; top dose 50 μM; read-out: B16F10 IFNγ Induced pSTAT1 EC50
readout-name: EC50

Given the entry O=C1CN(c2c(O)cc3c(c2F)C[C@H](NCC2CC2)CS3)S(=O)(=O)N1 [Compound 111] , what EC50 was observed with IFNγ-induced STAT1 phosphorylation (pSTAT1) in B16F10 cells?
7.98 µM

Can you handle CC(C)N[C@@H]1CSc2cc(O)c(N3CC(=O)NS3(=O)=O)c(F)c2C1 [Compound 116] next?
17.2 µM

Same lookup for O=C1CN(c2c(O)cc3c(c2F)C[C@H](NCC2(F)CC2)CS3)S(=O)(=O)N1 [Compound 125] , please.
> 50 µM

One more compound: CC1(CCN[C@@H]2CSc3cc(O)c(N4CC(=O)NS4(=O)=O)c(F)c3C2)CC1 [Compound 132]
1.58 µM

###

target: His tagged PTPN2 (TC45) protein (Homo sapiens, UniProt P17706); construct: His; made in house; assay: Mobility Shift Assay (MSA) for PTPN2 inhibitors; type: biochemical; settings: Table 3; thiochromanes (X = S) and chromane comparators (X = O)
Sequence (P17706 1-387 isoform P17706-2): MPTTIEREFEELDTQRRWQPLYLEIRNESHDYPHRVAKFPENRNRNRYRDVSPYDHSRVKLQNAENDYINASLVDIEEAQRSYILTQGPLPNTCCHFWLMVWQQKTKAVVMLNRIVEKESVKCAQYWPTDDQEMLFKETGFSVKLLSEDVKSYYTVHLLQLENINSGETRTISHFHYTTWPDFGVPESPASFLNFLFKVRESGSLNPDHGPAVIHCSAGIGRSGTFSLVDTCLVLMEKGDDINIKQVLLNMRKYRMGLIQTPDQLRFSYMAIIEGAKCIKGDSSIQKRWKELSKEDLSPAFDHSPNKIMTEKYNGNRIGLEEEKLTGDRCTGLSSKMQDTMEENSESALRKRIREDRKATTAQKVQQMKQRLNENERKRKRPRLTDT
readout-name: IC50 (nM)
Numbers only; they are read as nM.

Value lookup for IC50; key = O=C1CN(c2c(O)cc3c(c2F)C[C@H](NCCCOCC(F)F)CS3)S(=O)(=O)N1 [Compound 137]
21

Okay, and CC(C)CCN[C@@H]1COc2cc(O)c(N3CC(=O)NS3(=O)=O)c(F)c2C1 [Compound C-3, reference compound] ?
15

Another compound to look at: O=C1CN(c2c(O)cc3c(c2F)C[C@H](NCCCC(F)F)CS3)S(=O)(=O)N1 [Compound 100]
2

###

molecular target: His tagged PTPN2 (TC45) protein (Homo sapiens); construct: His; made in house; test: Mobility Shift Assay (MSA) for PTPN2 inhibitors; assay type: biochemical; conditions: enzyme 0.5 nM, substrate 2 μM, 10 minutes preincubation at room temperature
Please go through the items and note down their IC50.

Which IC50 value belongs to CC(C)N[C@@H]1CSc2cc(O)c(N3CC(=O)NS3(=O)=O)c(F)c2C1 [Compound 116] ?
10 to 100 nM

Let us now turn to O=C1CN(c2c(O)cc3c(c2F)C[C@H](NCCC2CCOC2)CS3)S(=O)(=O)N1 (stereo partly drawn) [Compound 114]
< 10 nM

Record: O=C1CN(c2c(O)cc3c(c2F)C[C@H](NCCCc2ccccc2)CS3)S(=O)(=O)N1 [Compound 136]
10 to 100 nM

Try the compound O=C1CN(c2c(O)cc3c(c2F)C[C@H](NCC2CCC(C(F)(F)F)CC2)CS3)S(=O)(=O)N1 (stereo partly drawn) [Compound 139]
< 10 nM

Subsequent entry: O=C1CN(c2c(O)cc3c(c2F)C[C@H](NCCCOCC(F)F)CS3)S(=O)(=O)N1 [Compound 137]
10 to 100 nM

What do you have for CC(C)CN[C@@H]1CSc2cc(O)c(N3CC(=O)NS3(=O)=O)c(F)c2C1 [Compound 113] ?
10 to 100 nM

And CC1=C(CCN[C@@H]2CSc3cc(O)c(N4CC(=O)NS4(=O)=O)c(F)c3C2)C(C)(C)CCC1 [Compound 140] ?
10 to 100 nM

Also O=C1CN(c2c(O)cc3c(c2F)C[C@H](NCCC2(CO)CCC2)CS3)S(=O)(=O)N1 [Compound 104] , if possible.
< 10 nM

Try this compound too: O=C1CN(c2c(O)cc3c(c2F)C[C@H](NCC2(CF)CC2)CS3)S(=O)(=O)N1 [Compound 128]
10 to 100 nM

Same for O=C1CN(c2c(O)cc3c(c2F)C[C@H](NCCCC(F)F)CS3)S(=O)(=O)N1 [Compound 100]
< 10 nM

How about this compound: CC(C)(CO)CCN[C@@H]1CSc2cc(O)c(N3CC(=O)NS3(=O)=O)c(F)c2C1 [Compound 106]
< 10 nM

Repeat for the following compound: CCCN[C@@H]1CSc2cc(O)c(N3CC(=O)NS3(=O)=O)c(F)c2C1 [Compound 107]
10 to 100 nM

Thanks! And CCC(CC)CCN[C@@H]1CSc2cc(O)c(N3CC(=O)NS3(=O)=O)c(F)c2C1 [Compound 119] ?
< 10 nM

Param item: CCC(C)CCN[C@@H]1CSc2cc(O)c(N3CC(=O)NS3(=O)=O)c(F)c2C1 (stereo partly drawn) [Compound 108]
< 10 nM

Then CCCCN[C@@H]1CSc2cc(O)c(N3CC(=O)NS3(=O)=O)c(F)c2C1 [Compound 112] ?
< 10 nM
